Target: T1, RADIL, Q96JH8
T1 sequence (Q96JH8 971-1071, limits assumed, looked up): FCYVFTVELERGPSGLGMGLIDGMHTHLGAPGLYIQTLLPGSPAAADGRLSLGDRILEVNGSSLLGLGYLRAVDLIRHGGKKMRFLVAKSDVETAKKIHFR
Assay: holdup assay
Parameters: key: below the threshold = too weak to quantify, mostly under pKd 3.1 to 4
Conditions: plain residues with an end cap or a label only (N-terminal biotin on a linker: ado-ado)
Consider the following binders and their measured pKd readings.
Field format: numeric only.

Completed entries (count: 3):
[[record]]
binder = "SGSLKLMTTV [DACT1, Q9NYF0]"
result_value = 4.15

[[record]]
binder = "PKRSFIESNV [TANC1, Q9C0D5]"
result_value = 3.67

[[record]]
binder = "YYKRPVQEWV [MMP24, Q9Y5R2]"
result_value = 5.63


Now take the following binder into account.
The recorded pKd for entry HSGYRLNDYV [CLDN14, O95500] equals 4.6
